From: paper PMC6736568

Test system: HCT-8 host cells (Hs18S)
run-parameters: human, 41 h, 10 μM
readout-type: Hs18S ΔCT

In [3]: df
Out[3]:
                                   molecule                    target  value_reported
0  O=C(O)[C@]1(O)C[C@@H](O)[C@@H](O)[C@H](O)C1 [QUINIC ACID]  HCT-8 host cells (Hs18S)            0.23
1  O=C(O)C1CC([C@@H]2CCCCN2)CN2CCCCC12 (some centres unmarked) [APHYLLIC ACID]  HCT-8 host cells (Hs18S)            0.25
2  COc1ccc(C(=O)c2ccc(O)cc2)c(O)c1O [2,3,4′-Trihydroxy-4-methoxybenzophenone]  HCT-8 host cells (Hs18S)            0.10
3  C=C1C(=O)O[C@@H]2C[C@@]3(C)CCC[C@H](C)C3=C[C@H]12 [HELENINE]  HCT-8 host cells (Hs18S)            0.10
4  COc1cc(C/C=C/c2ccccc2)c(OC)cc1O [VIOLASTYRENE]  HCT-8 host cells (Hs18S)           -0.30

* * *

System: HCT-8 host cells (Hs18S)
run-parameters: primary screening at 10 uM, treated vs control
Counter-ions that a name gives are not always drawn.
readout-type: Hs18S ΔCT

                                   compound  readout_type  value_reported
0  O=c1c(O)c(-c2ccc(O)c(O)c2)oc2c(O[C@@H]3O[C@H](CO)[C@@H](O)[C@H](O)[C@H]3O)c(O)cc(O)c12     Hs18S ΔCT           -0.07
1  CC1(C)C(=O)[C@@H]2C[C@@]3(O)C4=CC(=O)O[C@@H](c5ccoc5)[C@]4(C)CC[C@@H]3[C@@](C)(C2=O)[C@H]1CC(=O)O [8-HYDROX[…]]     Hs18S ΔCT            1.43
2  CC[C@H]1CN2CCc3cc(OC)c(OC)cc3[C@@H]2C[C@@H]1C[C@H]1NCCc2cc(OC)c(OC)cc21 [EMETINE DIHYDROCHLORIDE]     Hs18S ΔCT            1.41
3  COc1c(O)cc2oc3cc(O)c(CC=C(C)C)c(O)c3c(=O)c2c1CC=C(C)C     Hs18S ΔCT            4.36

* * *

Test system: HCT-8 host cells (Hs18S)
run-parameters: human, 41 h, 10 μM
Friendly reminder: Hs18S ΔCT below -0.05 is rule met, at or above is rule not met.

>>> print(df.to_string())
                                   compound           cat
0  COc1cc(-c2coc3cc(OCc4ccccc4)c(OC)c(O)c3c2=O)cc(OCc2ccccc2)c1OC [IRIGENIN, DIBENZYL ETHER]  rule not met
1  O=c1ccn([C@@H]2O[C@H](CO)[C@@H](O)[C@H]2O)c(=O)[nH]1 [URIDINE]  rule not met
2  COc1cccc(-c2cc(=O)c3cc(OC)ccc3o2)c1 [6,3'-DIMETHOXYFLAVONE]      rule met
3  CC[C@@H]1C(=O)OC[C@@H]1Cc1cncn1C [PILOCARPINE NITRATE]      rule met
4  C=CCCCCCCCCCCCC(O)CC(O)COC(C)=O (centres unmarked) [AVOCATIN A]  rule not met
5  COc1c(-c2coc3cc4c(cc3c2=O)CC(OC(C)=O)C(C)(C)O4)ccc2c1C=CC(C)(C)O2 (centres unmarked) [MUNDULONE ACETATE]  rule not met
6  C=C[C@H]1C[N@@]2CC[C@H]1C[C@@H]2[C@@H](O)c1ccnc2ccc(OC)cc12 [QUINIDINE GLUCONATE]  rule not met

* * *

Test system: HCT-8 host cells (Hs18S)
run-parameters: human, 41 h, 10 μM
Counter-ions that a name gives are not always drawn.
Label class 0 if Hs18S ΔCT falls below -0.2; label class 1 in every other case.

molecule	target	cat
CC[C@H](CC[C@@H](C)[C@H]1CC[C@H]2[C@@H]3CC=C4C[C@@H](OC(C)=O)CC[C@]4(C)[C@H]3CC[C@]12C)C(C)C [SITOSTERYL ACETATE]	HCT-8 host cells (Hs18S)	class 1
N[C@@H](Cc1ccc(O)c(O)c1)C(=O)O	HCT-8 host cells (Hs18S)	class 0
CC(=O)O[C@H]1C(=O)[C@@]2(C)[C@H]([C@H](OC(=O)c3ccccc3)[C@]3(O)C[C@H](OC(=O)[C@H](O)[C@@H](NC(=O)c4ccccc4)c4ccccc4)C(C)=C1C3(C)C)[C@]1(OC(C)=O)CO[C@@H]1C[C@@H]2O	HCT-8 host cells (Hs18S)	class 1
O=C(O)/C=C/C=C/c1ccccc1	HCT-8 host cells (Hs18S)	class 0
Cc1cccc2c3c(ccc12)C1=C(C(=O)C3=O)[C@@H](C)CO1 [Dihydrotanshinone I]	HCT-8 host cells (Hs18S)	class 1
NCCCCNCCCN [SPERMIDINE TRIHYDROCHLORIDE]	HCT-8 host cells (Hs18S)	class 0
CC/C=C\C/C=C\C/C=C\C/C=C\C/C=C\C/C=C\CCC(=O)O	HCT-8 host cells (Hs18S)	class 1
Cc1cc(O)c(C)c(O)c1C(=O)O	HCT-8 host cells (Hs18S)	class 1
CC(=O)Oc1c(C)c(C)c2c(c1C)CCC(C)(CCCC(C)CCCC(C)CCCC(C)C)O2 (stereo not drawn) [alpha-TOCHOPHERYL ACETATE]	HCT-8 host cells (Hs18S)	class 0
O=C(/C=C/c1ccccc1)c1ccc(O[C@@H]2O[C@H](CO)[C@@H](O)[C@H](O)[C@H]2O)cc1O [2',4'-DIHYDROXYCHALCONE 4'-GLUCOSIDE]	HCT-8 host cells (Hs18S)	class 1
CCCCCCCCCCCCCCCCCCCCCCO	HCT-8 host cells (Hs18S)	class 0
CC(C)[C@@H]1CC[C@@H](C)C[C@H]1OC(=O)c1ccccc1 [MENTHYL BENZOATE]	HCT-8 host cells (Hs18S)	class 1
CC(=O)OCC(=O)[C@H]1CC[C@H]2[C@@H]3CC=C4C[C@@H](O)CC[C@]4(C)[C@H]3CC[C@]12C	HCT-8 host cells (Hs18S)	class 1
CCOc1cccc(C(=O)c2ccc(O)c(O)c2O)c1	HCT-8 host cells (Hs18S)	class 0
C[C@]12CCC(=O)C=C1CC[C@@H]1[C@@H]2[C@@H](O)C[C@@]2(C)[C@H]1CC[C@]2(O)C(=O)CO [HYDROCORTISONE]	HCT-8 host cells (Hs18S)	class 0
NCCCNCCCCNCCCN	HCT-8 host cells (Hs18S)	class 0

* * *

Tested on: HCT-8 host cells (Hs18S)
run-parameters: primary screening at 10 uM, treated vs control
Hs18S ΔCT: recorded values

compound	Hs18S ΔCT
O=C(O[C@@H]1Cc2c(O)cc(O)cc2O[C@@H]1c1ccc(O)c(O)c1)c1cc(O)c(O)c(O)c1 [EPICATECHIN MONOGALLATE]	0.38
CN[C@@H]1[C@@H](O)[C@@H](O[C@@H]2[C@@H](O)[C@H](O[C@H]3O[C@H]([C@@H](C)O)[C@@H](O)[C@H](O)[C@H]3N)[C@@H](N)C[C@H]2N)OC[C@]1(C)O	0.07
CC(C)CCC[C@@H](C)[C@H]1CC[C@H]2[C@@H]3CC[C@H]4CC(=O)CC[C@]4(C)[C@H]3CC[C@]12C	-0.48

* * *

Test system: HCT-8 host cells (Hs18S)
run-parameters: primary screening at 10 uM, from Hs18S ΔCT

molecule	Cytotoxicity (%)
CC(=O)[C@H]1CC[C@H]2[C@@H]3CCC4C[C@H](O)CC[C@]4(C)[C@H]3C[C@H](O)[C@]12C (stereo partly drawn) [DIHYDROXY (3alpha,12alpha)PREGNAN-20-ONE]	-29.0%
CC(C)(O)[C@@H]1CC[C@](C)([C@H]2[C@@H](O)C[C@@]3(C)[C@@H]4C[C@H](O[C@@H]5O[C@H](CO)[C@@H](O)[C@H](O)[C@H]5O)[C@H]5C(C)(C)[C@@H](O[C@@H]6OC[C@@H](O)[C@H](O)[C@H]6O)CC[C@@]56C[C@@]46CC[C@]23C)O1 [ASTRAGALOSIDE IV]	-14.1%

* * *

Tested on: HCT-8 host cells (Hs18S)
run-parameters: primary screening at 10 uM, from Hs18S ΔCT

compound	Cytotoxicity (%)
O=c1cc(-c2ccccc2O)oc2cc(O)ccc12 [7,2'-DIHYDROXYFLAVONE]	12.6%
CC(=O)O[C@H]1C[C@@H](OC(C)=O)C(C)(C)C2CC(=O)[C@]3(C)C(CC[C@@]4(C)[C@H](c5ccoc5)OC(=O)[C@H]5O[C@]543)[C@]21C (some centres unmarked)	13.5%
CC1(C)C=Cc2c(c3c(c4c(=O)c(-c5ccc(O)c(O)c5)coc24)OC(C)(C)CC3)O1	-5.3%
CC1=CC2C(C(C)C)CCC(C)(O)C2CC1 (centres unmarked)	-34.1%
CC(=O)Oc1cc2c(cc1OC(C)=O)[C@@H]1c3ccc(OC(C)=O)c(OC(C)=O)c3OC[C@]1(OC(C)=O)C2 [HAEMATOXYLIN PENTAACETATE]	12.3%
COC(=O)/C(C)=C\CC12OC(C)(C)C3CC(C=C4C(=O)c5c(c(CCC(C)(C)Cl)c6c(c5OC)C5CC(C)(CCC5=C(C)C)O6)OC431)C2=O (centres unmarked) [DIMETHYL GAMBOGINATE]	79.7%
COc1cc2c(cc1-c1cc3cc4ccoc4cc3oc1=O)OCO2	-6.0%
C[C@H]1O[C@H](OC2[C@@H](O)[C@@H](O)C(O)[C@H](O)[C@H]2O)[C@@H](N)C[C@@H]1N=C(N)C(=O)O.Cl (some centres unmarked) [KASUGAMYCIN HYDROCHLORIDE]	-1.2%
O=C(O)[C@H](O)[C@@H](O)[C@H](O[C@@H]1O[C@H](CO)[C@H](O)[C@H](O)[C@H]1O)[C@H](O)CO	-27.5%
COc1ccc(-c2cc(=O)c3c(O)c(OC)c(OC)c(OC)c3o2)cc1OC	-4.6%
O.O=C(O)[C@@H]1[C@H]2C[C@H]3c4[nH]c5ccccc5c4CCN3C[C@@H]2CC[C@@H]1O [YOHIMBIC ACID HYDRATE]	-20.7%
CC(C(=O)O)[C@H]1CCC2C3CC=C4C[C@@H](O)CC[C@]4(C)C3CC[C@@]21C (some centres unmarked)	-63.2%
CC(=O)[C@@]1(O)CC[C@H]2[C@@H]3CCC4=CC(=O)CC[C@]4(C)[C@H]3CC[C@@]21C [HYDROXYPROGESTERONE]	22.7%
CN1CCC[C@H]1c1cccnc1.O=C(O)C(O)C(O)C(=O)O.O=C(O)C(O)C(O)C(=O)O [NICOTINE BITARTRATE]	-43.3%
